biological target: UniProt Q9UBN7; assay: HDAC 6 activity at fixed concentration (Table 2); type: biochemical; design: unit not given here; conditions: compound at 50 nM
OBSERVED PROPERTY: HDAC 6 at 50 nM

1. Cc1ccc(COc2ccc3c(c2)OC(C(=O)NO)CC3)cc1 (stereo not shown)
29
2. CO[C@@H]1C[C@@H](C(=O)NO)Oc2ccccc21
37
3. O=C(NO)C1CCc2cc(CCCOC(=O)N3CCc4ccccc4C3)ccc2O1 (stereo not shown)
73

a: O=C(Nc1ccc2c(c1)CCC(C(=O)NO)O2)c1ccc(S(F)(F)(F)(F)F)cc1 (stereo not shown)
b: C[C@@H]1Cc2ccccc2O[C@@H]1C(=O)NO
c: O=C(NO)C1CCc2cc(-c3ccc(Cl)c(Cl)c3)ccc2O1 (stereo not shown)
d: O=C(NO)C1CCc2cccc(NS(=O)(=O)c3ccc(F)cc3)c2O1 (stereo not shown)
e: O=C(NO)[C@@H]1CCc2ccc(OCc3ccccc3Cl)cc2O1
List from greatest to least HDAC 6 at 50 nM. Give the labels in the order requested. c, a, e, d, b
(c: 73, a: 41, e: 17, d: 5, b: 0)

====

Quick reference for melting point among some compounds

Examples with their reported melting point follow.
1. O=C(Nc1cccc2c1O[C@@H](C(=O)NO)CC2)OCc1ccccc1Cl [+11L]
173 to 175 °C
2. Cc1ccc(S(=O)(=O)Nc2cccc3c2OC(C(=O)NO)CC3)cc1 (stereo not drawn) [Compound 11p]
235 to 237 °C
3. CS(=O)(=O)Nc1cccc2c1OC(C(=O)NO)CC2 (stereo not drawn) [Compound 11o]
181 to 183 °C
4. COc1ccc(COC(=O)Nc2ccc3c(c2)CCC(C(=O)NO)O3)cc1 (stereo not drawn) [Compound 14j]
149 to 151 °C
5. O=C(NO)C1CCc2cc(Cl)ccc2O1 (stereo not drawn) [Compound 90, 6-Chloro-N-hydroxychromane-2-carboxamide]
160 to 162 °C

What does the data say about its melting point? Entry: O=C(NO)C1CCc2ccc(OCCOc3ccc(F)cc3)cc2O1 (stereo not drawn) [Compound 50b] 144 to 147 °C

Then O=C(NO)C1CCc2cc(-c3ccc(-c4ccccc4)cc3)ccc2O1 (stereo not drawn) [Compound 44a] ? 218 to 219 °C

====

Target: HDAC 6 (Homo sapiens)
Sequence (Q9UBN7 1-1215): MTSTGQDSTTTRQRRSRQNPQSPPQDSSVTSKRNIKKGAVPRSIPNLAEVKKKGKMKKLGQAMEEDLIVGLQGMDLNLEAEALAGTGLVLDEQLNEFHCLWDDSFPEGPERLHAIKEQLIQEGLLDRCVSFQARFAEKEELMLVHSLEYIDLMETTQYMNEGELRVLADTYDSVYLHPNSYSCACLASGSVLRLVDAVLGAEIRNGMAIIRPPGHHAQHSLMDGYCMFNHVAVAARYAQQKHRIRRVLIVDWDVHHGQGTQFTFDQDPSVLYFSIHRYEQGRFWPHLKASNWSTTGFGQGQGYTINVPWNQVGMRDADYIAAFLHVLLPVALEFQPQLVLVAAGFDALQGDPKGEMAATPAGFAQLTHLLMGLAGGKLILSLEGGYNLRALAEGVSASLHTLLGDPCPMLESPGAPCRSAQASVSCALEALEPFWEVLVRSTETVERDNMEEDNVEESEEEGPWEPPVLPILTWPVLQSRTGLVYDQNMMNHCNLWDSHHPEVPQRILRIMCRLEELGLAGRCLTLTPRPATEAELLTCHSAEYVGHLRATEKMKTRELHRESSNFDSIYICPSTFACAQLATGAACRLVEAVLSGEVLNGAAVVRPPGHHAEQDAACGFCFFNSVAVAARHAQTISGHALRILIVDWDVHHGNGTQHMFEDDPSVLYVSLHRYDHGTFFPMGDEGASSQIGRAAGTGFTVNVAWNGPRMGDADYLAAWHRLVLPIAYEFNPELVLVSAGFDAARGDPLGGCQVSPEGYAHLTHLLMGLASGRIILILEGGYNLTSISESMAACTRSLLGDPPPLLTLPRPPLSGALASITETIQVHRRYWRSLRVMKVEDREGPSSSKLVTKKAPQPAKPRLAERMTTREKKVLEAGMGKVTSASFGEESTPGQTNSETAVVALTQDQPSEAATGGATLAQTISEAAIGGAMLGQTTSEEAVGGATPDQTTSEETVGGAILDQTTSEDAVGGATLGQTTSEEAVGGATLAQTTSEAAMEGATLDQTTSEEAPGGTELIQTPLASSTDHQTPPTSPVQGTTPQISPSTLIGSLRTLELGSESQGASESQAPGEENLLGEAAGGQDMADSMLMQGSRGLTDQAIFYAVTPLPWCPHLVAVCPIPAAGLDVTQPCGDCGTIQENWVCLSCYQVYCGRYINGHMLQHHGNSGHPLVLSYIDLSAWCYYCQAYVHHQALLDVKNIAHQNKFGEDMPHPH
Assay: HDAC 6 activity at fixed concentration (Table 2)
Format: biochemical
Design: unit not given here
Settings: compound at 50 nM
OBSERVED PROPERTY: HDAC 6 at 50 nM

# example entries with known answers
1) O=C(NO)C1CCc2cc(NS(=O)(=O)c3cc(Cl)cc(Cl)c3)ccc2O1 (stereo not shown) [Compound 1-14]
0
2) O=C(Nc1ccc2c(c1)CC[C@@H](C(=O)NO)O2)c1ccc(-c2ccccc2)cc1 [Compound 1-57]
7
3) O=C(NO)C1CCc2ccc(OCCOc3ccc(F)cc3)cc2O1 (stereo not shown) [Compound 1-25]
0
4) O=C(NO)[C@@H]1CCc2ccc(OCc3ccc(Cl)cc3)cc2O1 [Compound 1-59]
0
5) O=C(NO)C1CCc2cc(NS(=O)(=O)c3cccc4ccccc34)ccc2O1 (stereo not shown) [Compound 1-51]
64

P: COc1ccccc1COC(=O)Nc1cccc2c1O[C@H](C(=O)NO)CC2 [Compound 1-66]
Q: O=C(COc1ccc(Cl)c(Cl)c1)Nc1cccc2c1OC(C(=O)NO)CC2 (stereo not shown) [Compound 1-45]
Rank P against Q by their HDAC 6 at 50 nM values and give the higher one. Mark your answer with the label of the selected entry. P
(P: 31, Q: 0)

a: CC(C)COC(=O)Nc1cccc2c1OC(C(=O)NO)CC2 (stereo not shown) [Compound 1-30]
b: Cn1ccc2cc(-c3ccc4c(c3)OC(C(=O)NO)CC4)ccc21 (stereo not shown) [Compound 1-55]
Which shows the larger HDAC 6 at 50 nM value: a or b ? Respond with the label that goes with your answer. b
(b: 44, a: 29)

====

melting point overview

Consider the reported melting point for these molecules:
1. O=C(NO)C1CCc2cc(-c3ccc(F)cc3)ccc2O1 (centres unmarked) [Compound 44b]
177 to 179 °C
2. O=C(Nc1cccc2c1O[C@H](C(=O)NO)CC2)OCc1ccc(Cl)cc1 [Compound 11h]
155 to 157 °C
3. Cn1ccc2cc(-c3ccc4c(c3)OC(C(=O)NO)CC4)ccc21 (centres unmarked) [Compound 58b]
155 to 158 °C
4. O=C(NO)[C@@H]1CCc2ccc(-c3ccc(F)c(Cl)c3)cc2O1 [(S)-58d]
173 to 174 °C

Please look at the following molecule next.
Consider the molecule shown here: CN1CC(C(=O)NO)Oc2ccccc21 (centres unmarked) What is its recorded melting point? 118 to 120 °C

====

biological target: HDAC 6 (Homo sapiens, UniProt Q9UBN7); test: HDAC 6 activity at fixed concentration (Table 2); type: biochemical; design: unit not given here; settings: compound at 50 nM
OBSERVED PROPERTY: HDAC 6 at 50 nM

Examples with their reported HDAC 6 at 50 nM follow.
1. COc1ccccc1COc1ccc2c(c1)OC(C(=O)NO)CC2 (stereo not shown) [Compound 1-47]
53
2. O=C(Nc1cccc2c1O[C@@H](C(=O)NO)CC2)OCc1ccccc1Cl [Compound 1-34]
13
3. O=C(NO)C1CCc2cc(-c3ccc(F)cc3)ccc2O1 (stereo not shown) [Compound 1-18]
68
4. O=C(Nc1ccc(F)cc1)Nc1ccc2c(c1)CCC(C(=O)NO)O2 (stereo not shown) [Compound 1-46]
48
5. O=C(NO)[C@@H]1CCc2ccc(-c3ccc(F)c(Cl)c3)cc2O1 [Compound 1-64]
47

1: O=C(NO)C1CCc2cc(-c3ccc(-c4ccccc4)cc3)ccc2O1 (stereo not shown) [Compound 1-23]
2: O=C(Nc1ccc(F)cc1)Nc1cccc2c1OC(C(=O)NO)CC2 (stereo not shown) [Compound 1-40]
# return whichever of 1 and 2 has the smaller HDAC 6 at 50 nM I would appreciate it if you answered with the label of your choice. 2

====

Known melting point of a selection of compounds

Here are 2 compounds together with their reported answers.
1. O=C(NO)C1CCc2ccc(O)cc2O1 (centres unmarked) [Compound 55, N,7-Dihydroxychromane-2-carboxamide]
174 to 176 °C
2. Cl.O=C(CN1CCC2(CCc3cc(F)ccc3O2)CC1)NO
200 to 203 °C

Need melting point, item O=C(NO)C1CCc2ccc(OCc3ccc(C(F)(F)F)cc3)cc2O1 (centres unmarked) [Compound 50a] 148 to 151 °C

Thanks! And O=C(NCc1ccc(Cl)c(C(F)(F)F)c1)Nc1cccc2c1OC(C(=O)NO)CC2 (centres unmarked) [Compound 14i] ? 195 to 197 °C

# repeat for O=C(NO)C1CCc2cc(CCCOC(=O)N3CCc4ccccc4C3)ccc2O1 (centres unmarked) 82 to 84 °C

And for O=C(NO)C1CCc2cc(C#CCOC(=O)N3CCc4ccccc4C3)ccc2O1 (centres unmarked) ? 90 to 92 °C

How about O=C(Nc1ccc(F)cc1)Nc1cccc2c1OC(C(=O)NO)CC2 (centres unmarked) [Compound 11c] ? 231 to 232 °C

Same question for O=C(Nc1cccc2c1OC(C(=O)NO)CC2)OCc1ccc(C(F)(F)F)cc1 (centres unmarked) [Compound 11f] please. 102 to 104 °C

Now try O=C(NO)C1CCc2cccc(NS(=O)(=O)c3cccc4ccccc34)c2O1 (centres unmarked) [Compound 11n] . 219 to 221 °C

Also C[C@@H]1Cc2ccccc2O[C@@H]1C(=O)NO (relative stereo) , if possible. 156 to 160 °C

How about this compound: O=C(Nc1ccc2c(c1)CCC(C(=O)NO)O2)c1ccc(S(F)(F)(F)(F)F)cc1 (centres unmarked) [Compound 14c] 214 to 216 °C

Next record, please: O=C(NO)C1CCc2cc(NS(=O)(=O)c3cc(Cl)cc(Cl)c3)ccc2O1 (centres unmarked) [Compound 14n] 156 to 170 °C

Could you do the same for O=C(NO)C1CCc2cc(C#CCOc3ccc(F)cc3)ccc2O1 (centres unmarked) , please? 149 to 151 °C

Record: O=C(NO)[C@@H]1CCc2ccc(-c3ccc(Cl)c(Cl)c3)cc2O1 [(S)-58e] 134 to 136 °C
